// data source = patent US4731375A

Tested on: mouse
Experiment: intraperitoneal acute toxicity test in mouse (Test Example 2)
Format: in vivo, mouse (Slc: ddy male)
Details: 14 days observation, five mice per group
We begin with a simple list: items and their reported MLD (Minimal Lethal Dose).

Memo: O=C(O)CCCCCOc1ccc2oc(=O)c(-c3nnn[nH]3)cc2c1 [Compound F] , reported MLD (Minimal Lethal Dose): > 1600 mg/kg

Memo: O=C(O)COc1cccc2cc(-c3nnn[nH]3)c(=O)oc12 [Compound A] , reported MLD (Minimal Lethal Dose): > 1000 mg/kg

Memo: O=C(O)CCCCCOc1cccc2cc(-c3nnn[nH]3)c(=O)oc12 [Compound D] , reported MLD (Minimal Lethal Dose): > 1600 mg/kg

Memo: O=C(O)CCCOc1cccc2cc(-c3nnn[nH]3)c(=O)oc12 [Compound B] , reported MLD (Minimal Lethal Dose): > 1600 mg/kg

Memo: O=C(O)CCCCCOc1ccc2cc(-c3nnn[nH]3)c(=O)oc2c1 [Compound E] , reported MLD (Minimal Lethal Dose): > 1500 mg/kg

Memo: O=C(O)CCCOc1ccc2oc(=O)c(-c3nnn[nH]3)cc2c1 [Compound C] , reported MLD (Minimal Lethal Dose): > 1500 mg/kg

Memo: O=C(O)CCCCCOc1cccc2oc(=O)c(-c3nnn[nH]3)cc12 [Compound G] , reported MLD (Minimal Lethal Dose): > 1500 mg/kg
